- tested.on: Protein farnesyltransferase (Homo sapiens, UniProt P49354+P49356)
- assay.details: Inhibition of human FTase
pIC50: −log10 of the molar value.
measured.parameter: pIC50

compound	tested.on	measured.parameter	test.result
Cn1cncc1C(O)(c1ccc(C#N)cc1)c1cc2cc([N+](=O)[O-])cc(-c3ccc(C#N)cc3)c2o1 (racemic)	Protein farnesyltransferase (Homo sapiens, UniProt P49354+P49356)	pIC50	8.47
COc1cccc(-c2cc(C=O)cc3cc(C(O)(c4ccc(C#N)cc4)c4cncn4C)oc23)c1 (racemic)	Protein farnesyltransferase (Homo sapiens, UniProt P49354+P49356)	pIC50	8.70

I: COc1cccc(-c2cc(C(=O)NN3CCOCC3)cc3cc(C(O)(c4ccc(C#N)cc4)c4cncn4C)oc23)c1 (racemic)
II: Cn1cncc1[C@@](N)(c1ccc(C#N)cc1)c1cc2cc(C#N)cc(-c3cccc(F)c3)c2o1
Input line: // which entry reports the smaller pIC50, I or II ? Choose, then provide that item's label.
Output line: I
